Data origin, for the record: patent US20250302832A1

targetEntity: HiBit-BRM fusion protein (Homo sapiens, UniProt P51531)
Construct: expressed in transfected cells
Sequence (P51531 whole entry, the tested form may be a part): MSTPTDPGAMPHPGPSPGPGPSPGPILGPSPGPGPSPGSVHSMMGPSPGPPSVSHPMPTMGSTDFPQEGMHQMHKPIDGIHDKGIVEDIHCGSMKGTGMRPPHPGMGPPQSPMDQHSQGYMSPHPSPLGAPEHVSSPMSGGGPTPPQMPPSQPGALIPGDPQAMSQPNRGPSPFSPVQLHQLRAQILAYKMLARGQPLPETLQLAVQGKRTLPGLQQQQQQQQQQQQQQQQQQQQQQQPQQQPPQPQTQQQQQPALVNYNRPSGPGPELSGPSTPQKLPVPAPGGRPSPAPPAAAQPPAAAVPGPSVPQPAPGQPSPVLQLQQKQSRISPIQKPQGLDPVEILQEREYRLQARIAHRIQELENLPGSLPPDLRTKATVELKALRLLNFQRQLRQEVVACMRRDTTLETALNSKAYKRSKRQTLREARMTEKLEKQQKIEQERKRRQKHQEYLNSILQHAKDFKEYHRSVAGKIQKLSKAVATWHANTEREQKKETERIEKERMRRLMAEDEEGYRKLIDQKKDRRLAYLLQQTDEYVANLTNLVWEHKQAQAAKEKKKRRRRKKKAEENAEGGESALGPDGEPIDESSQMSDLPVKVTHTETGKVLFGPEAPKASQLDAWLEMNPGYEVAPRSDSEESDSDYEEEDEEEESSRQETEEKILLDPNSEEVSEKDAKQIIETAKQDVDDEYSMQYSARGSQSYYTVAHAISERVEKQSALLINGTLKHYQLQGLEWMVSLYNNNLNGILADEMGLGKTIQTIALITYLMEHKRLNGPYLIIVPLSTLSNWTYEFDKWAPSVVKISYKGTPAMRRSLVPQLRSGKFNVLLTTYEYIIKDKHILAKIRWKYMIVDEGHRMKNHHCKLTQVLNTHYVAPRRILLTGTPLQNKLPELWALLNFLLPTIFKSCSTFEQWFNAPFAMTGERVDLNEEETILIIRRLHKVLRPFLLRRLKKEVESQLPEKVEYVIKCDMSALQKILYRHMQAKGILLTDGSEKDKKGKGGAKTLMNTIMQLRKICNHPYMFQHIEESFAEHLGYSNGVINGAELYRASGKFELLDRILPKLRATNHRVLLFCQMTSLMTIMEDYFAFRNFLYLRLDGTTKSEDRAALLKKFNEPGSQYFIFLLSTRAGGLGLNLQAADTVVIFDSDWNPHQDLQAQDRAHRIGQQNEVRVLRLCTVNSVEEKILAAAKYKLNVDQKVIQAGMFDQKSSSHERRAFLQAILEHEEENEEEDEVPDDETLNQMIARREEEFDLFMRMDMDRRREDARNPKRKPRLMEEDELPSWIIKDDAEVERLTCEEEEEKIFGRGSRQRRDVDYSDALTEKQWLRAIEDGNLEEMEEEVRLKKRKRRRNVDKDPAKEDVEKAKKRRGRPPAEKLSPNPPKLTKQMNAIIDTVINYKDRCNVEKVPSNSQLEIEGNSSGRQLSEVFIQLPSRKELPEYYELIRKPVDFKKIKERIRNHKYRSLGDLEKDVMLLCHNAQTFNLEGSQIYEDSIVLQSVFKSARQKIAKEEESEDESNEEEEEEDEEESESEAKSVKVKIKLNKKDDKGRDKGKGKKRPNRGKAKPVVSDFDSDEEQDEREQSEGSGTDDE
methodSummary: HiBiT-BRM cell-based degradation assay (Nano-Glo HiBiT lytic detection, 24 h)
runConditions: HeLa cell line expressing HiBiT-BRM, read-out: BRM HiBit Degradation IC50
Please provide measured DC50 for the entries that follow.

{"molecule": "Cc1ncsc1-c1ccc([C@H](C)NC(=O)[C@@H]2C[C@@H](O)CN2C(=O)[C@@H](c2cc(N3CC[C@H](c4cc5nnc(-c6ccccc6O)cc5n4C4CC4)C3)no2)C(C)C)cc1", "result": "< 10 nM"}
{"molecule": "Cc1ncsc1-c1ccc([C@H](C)NC(=O)[C@@H]2C[C@@H](O)CN2C(=O)[C@@H](c2cc(N3CC[C@@H](c4cc5nnc(-c6ccccc6O)cc5n4C4(C)CC4)C3)no2)C(C)C)cc1", "result": "< 10 nM"}
{"molecule": "CC(C)C(C(=O)N1C[C@H](O)C[C@H]1C(=O)NCc1ccc(F)cc1)c1cc(N2CC3(CC(c4cc5nnc(-c6ccccc6O)cc5n4C4CCC4)C3)C2)no1 (stereo partly shown)", "result": "> 10 nM"}
{"molecule": "Cc1ncsc1-c1ccc([C@H](C)NC(=O)[C@@H]2C[C@@H](O)CN2C(=O)[C@@H](c2cc(N3CCC[C@@H](c4cc5nnc(-c6ccccc6O)cc5n4C4CC4)C3)no2)C(C)C)cc1", "result": "> 10 nM"}
{"molecule": "Cc1ncsc1-c1ccc([C@H](C)NC(=O)[C@@H]2C[C@@H](O)CN2C(=O)[C@H](C(C)C)n2cc(-c3cnc(N4CC[C@H](c5cc6nnc(-c7ccccc7O)cc6n5C5CC5)C4)nc3)nn2)cc1", "result": "< 10 nM"}
{"molecule": "CC(C)NC(=O)[C@@H]1C[C@@H](O)CN1C(=O)C(c1cc(N2CC3(CC(c4cc5nnc(-c6ccccc6O)cc5n4C4CCC4)C3)C2)no1)C(C)C (stereo partly shown)", "result": "> 10 nM"}

Hey, quick one: what's DC50 for each of these?
1. Cc1ncsc1-c1ccc([C@H](C)NC(=O)[C@@H]2C[C@@H](O)CN2C(=O)[C@@H](c2cc(N3CC4(CCC(c5cc6nnc(-c7ccccc7O)cc6n5C5CC5)CC4)C3)no2)C(C)C)cc1
2. Cc1ncsc1-c1ccc([C@H](C)NC(=O)[C@@H]2C[C@@H](O)CN2C(=O)[C@@H](c2cc(N3CCC4(CC[C@H](c5cc6nnc(-c7ccccc7O)cc6n5C5CC5)C4)CC3)no2)C(C)C)cc1
3. Cc1ncsc1-c1ccc([C@H](C)NC(=O)[C@@H]2C[C@@H](O)CN2C(=O)[C@@H](c2cc(OCCN3CC(c4cc5nnc(-c6ccccc6O)cc5[nH]4)C3)no2)C(C)C)cc1

### Response
1. < 10 nM
2. < 10 nM
3. > 10 nM

* * *

targetEntity: HiBit-BRM fusion protein (Homo sapiens, UniProt P51531)
Construct: expressed in transfected cells
methodSummary: HiBiT-BRM cell-based degradation assay (Nano-Glo HiBiT lytic detection, 24 h)
runConditions: HeLa cell line expressing HiBiT-BRM, read-out: BRM HiBit Degradation IC50
measurementLabel: DC50

{"smilesRecord": "Cc1ncsc1-c1ccc([C@H](C)NC(=O)[C@@H]2C[C@@H](O)CN2C(=O)[C@H](c2cc(-c3cnc(N4CCC(c5cc6nnc(-c7ccccc7O)cc6n5C(C)C)CC4)nc3)no2)C(C)C)cc1", "targetEntity": "HiBit-BRM fusion protein (Homo sapiens, UniProt P51531)", "DC50": "< 10 nM"}

Hey, quick one: what's DC50 for each of these?
1. Cc1ncsc1-c1ccc([C@H](C)NC(=O)[C@@H]2C[C@@H](O)CN2C(=O)[C@@H](c2cc(-c3ccnc(N4CC[C@H](c5cc6nnc(-c7ccccc7O)cc6n5C5CC5)C4)n3)no2)C(C)C)cc1
2. Cc1ncsc1-c1ccc(CNC(=O)[C@@H]2C[C@@H](O)CN2C(=O)[C@@H](c2cc(N3CC4(CC(c5cc6nnc(-c7ccccc7O)cc6n5C5CCC5)C4)C3)no2)C(C)C)cc1
3. Cc1ncsc1-c1ccc([C@H](C)NC(=O)[C@@H]2C[C@@H](O)CN2C(=O)[C@@H](c2cc(OCCN3CCC(c4cc5nnc(-c6ccccc6O)cc5[nH]4)CC3)no2)C(C)C)cc1
4. Cc1ncsc1-c1ccc([C@H](C)NC(=O)[C@@H]2C[C@@H](O)CN2C(=O)[C@@H](c2cc(-c3cnc(N4CC[C@@H](c5cc6nnc(-c7ccccc7O)cc6n5CC5CC5)C4)nc3)no2)C(C)C)cc1

### Response
1. > 10 nM
2. > 10 nM
3. < 10 nM
4. < 10 nM

* * *

targetEntity: HiBit-BRG1 fusion protein (Homo sapiens, UniProt P51532)
Construct: expressed in transfected cells
Sequence (P51532 whole entry, the tested form may be a part): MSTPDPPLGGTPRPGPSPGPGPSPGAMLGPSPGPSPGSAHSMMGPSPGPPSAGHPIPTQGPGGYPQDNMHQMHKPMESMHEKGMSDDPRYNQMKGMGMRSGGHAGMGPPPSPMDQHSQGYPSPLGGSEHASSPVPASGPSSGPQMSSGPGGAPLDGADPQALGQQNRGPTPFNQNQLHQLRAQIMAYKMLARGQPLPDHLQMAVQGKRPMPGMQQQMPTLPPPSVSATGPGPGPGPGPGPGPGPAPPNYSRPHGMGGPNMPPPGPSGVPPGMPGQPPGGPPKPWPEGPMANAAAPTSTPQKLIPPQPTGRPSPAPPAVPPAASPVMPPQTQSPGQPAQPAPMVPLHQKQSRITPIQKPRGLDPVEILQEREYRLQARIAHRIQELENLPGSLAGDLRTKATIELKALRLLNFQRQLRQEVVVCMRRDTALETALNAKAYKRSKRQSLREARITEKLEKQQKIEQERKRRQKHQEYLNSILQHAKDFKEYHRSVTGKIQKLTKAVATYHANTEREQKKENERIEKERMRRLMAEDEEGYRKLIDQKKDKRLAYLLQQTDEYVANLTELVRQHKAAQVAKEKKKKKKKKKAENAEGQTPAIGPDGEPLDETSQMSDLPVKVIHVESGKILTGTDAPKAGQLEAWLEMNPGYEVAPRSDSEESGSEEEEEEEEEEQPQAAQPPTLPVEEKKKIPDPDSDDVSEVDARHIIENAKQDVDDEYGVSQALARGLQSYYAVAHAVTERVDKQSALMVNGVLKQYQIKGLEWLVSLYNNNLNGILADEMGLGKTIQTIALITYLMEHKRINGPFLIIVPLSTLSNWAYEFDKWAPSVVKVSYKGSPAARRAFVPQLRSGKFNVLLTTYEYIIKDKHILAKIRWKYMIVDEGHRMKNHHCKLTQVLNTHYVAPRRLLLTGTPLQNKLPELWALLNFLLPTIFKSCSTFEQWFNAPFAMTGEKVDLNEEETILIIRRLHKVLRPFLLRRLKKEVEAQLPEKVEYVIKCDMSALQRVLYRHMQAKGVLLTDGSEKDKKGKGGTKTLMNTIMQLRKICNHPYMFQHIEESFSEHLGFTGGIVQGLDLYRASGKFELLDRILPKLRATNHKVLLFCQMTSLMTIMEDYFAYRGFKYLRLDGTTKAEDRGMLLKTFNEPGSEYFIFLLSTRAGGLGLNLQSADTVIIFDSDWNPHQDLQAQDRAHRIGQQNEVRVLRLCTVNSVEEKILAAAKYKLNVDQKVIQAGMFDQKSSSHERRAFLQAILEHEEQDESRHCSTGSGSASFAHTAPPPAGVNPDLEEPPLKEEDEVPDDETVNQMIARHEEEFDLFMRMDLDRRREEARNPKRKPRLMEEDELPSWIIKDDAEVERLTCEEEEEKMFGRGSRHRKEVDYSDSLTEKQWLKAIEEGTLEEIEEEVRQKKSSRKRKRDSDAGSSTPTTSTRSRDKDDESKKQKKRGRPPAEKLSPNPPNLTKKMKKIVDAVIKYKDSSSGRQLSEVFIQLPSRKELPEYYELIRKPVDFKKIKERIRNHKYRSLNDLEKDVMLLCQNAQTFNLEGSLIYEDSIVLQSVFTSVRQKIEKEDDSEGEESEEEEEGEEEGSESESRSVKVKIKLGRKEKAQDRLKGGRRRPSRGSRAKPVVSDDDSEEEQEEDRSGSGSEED
methodSummary: HiBiT-BRG1 cell-based degradation assay (Nano-Glo HiBiT lytic detection, 24 h)
runConditions: HeLa cell line expressing HiBit-BRG1 and LgBit, read-out: BRG1 HiBit Degradation Maximum (%)
measurementLabel: Dmax

Hey, quick one: what's Dmax for each of these?
1. Cc1ncsc1-c1ccc([C@H](C)NC(=O)[C@@H]2C[C@@H](O)CN2C(=O)[C@@H](c2cc(N3CC[C@H](c4cc5nnc(-c6ccccc6O)cc5n4C4CCC4)C3)no2)C(C)C)cc1 [Compound 79]
2. Cc1ncsc1-c1ccc([C@H](C)NC(=O)[C@@H]2C[C@@H](O)CN2C(=O)[C@@H](c2cc(N3CCC[C@@H](c4cc5nnc(-c6ccccc6O)cc5n4C4CC4)C3)no2)C(C)C)cc1 [Compound 100]
3. CC(C)NC(=O)[C@@H]1C[C@@H](O)CN1C(=O)C(c1cc(N2CC3(CC(c4cc5nnc(-c6ccccc6O)cc5n4C4CCC4)C3)C2)no1)C(C)C (some centres unmarked) [Compound 54]
4. Cc1ncsc1-c1ccc([C@H](C)NC(=O)[C@@H]2C[C@@H](O)CN2C(=O)[C@@H](c2cc(-c3cnc(N4CC[C@@H](c5cc6nnc(-c7cccc(F)c7O)cc6n5C5CC5)C4)nc3)no2)C(C)C)cc1 [Compound 106]
5. Cc1ncsc1-c1ccc([C@H](C)NC(=O)[C@@H]2C[C@@H](O)CN2C(=O)[C@@H](c2cc(OCCN3CCN(c4cc5nnc(-c6ccccc6O)cc5n4C)CC3)no2)C(C)C)cc1 [Compound 27]

### Response
["< 50%", "< 50%", "< 50%", "< 50%", "> 75%"]

* * *

Please provide measured DC50 for the entries that follow.
targetEntity: HiBit-BRM fusion protein (Homo sapiens)
Construct: expressed in transfected cells
methodSummary: HiBiT-BRM cell-based degradation assay (Nano-Glo HiBiT lytic detection, 24 h)
runConditions: HeLa cell line expressing HiBiT-BRM, read-out: BRM HiBit Degradation IC50

Solved cases (6 shown):
{"compound": "C#CCNC(=O)[C@@H]1C[C@@H](O)CN1C(=O)C(c1cc(N2CC3(CC(c4cc5nnc(-c6ccccc6O)cc5n4C4CCC4)C3)C2)no1)C(C)C (stereo partly shown) [Compound 53]", "result": "> 10 nM"}
{"compound": "CC(C)[C@@H](C(=O)N1C[C@H](O)C[C@H]1C(=O)N[C@@H](C)c1ccc(F)cc1)c1cc(-c2cnc(N3CC[C@H](c4cc5nnc(-c6ccccc6O)cc5n4C4CC4)C3)nc2)no1 [Compound 92]", "result": "< 10 nM"}
{"compound": "Cc1ncsc1-c1ccc([C@H](C)NC(=O)[C@@H]2C[C@@H](O)CN2C(=O)[C@@H](c2cc(-c3cnc(N4CC[C@H](c5cc6nnc(-c7ccccc7O)cc6n5C5CC5)C4)nc3)no2)C(C)C)cc1 [Compound 34]", "result": "< 10 nM"}
{"compound": "Cc1ncsc1-c1ccc([C@H](C)NC(=O)[C@@H]2C[C@@H](O)CN2C(=O)[C@@H](c2cc(OCCN3CCC(c4cc5nnc(-c6ccccc6O)cc5n4C)CC3)no2)C(C)C)cc1 [Compound 20]", "result": "< 10 nM"}
{"compound": "Cc1ncsc1-c1ccc([C@H](C)NC(=O)[C@@H]2C[C@@H](O)CN2C(=O)[C@@H](c2cc(N3CCC(c4cc5nnc(-c6ccccc6O)cc5n4C4CC4)CC3)no2)C(C)C)cc1 [Compound 76]", "result": "< 10 nM"}
{"compound": "C#Cc1ccc(CNC(=O)[C@@H]2C[C@@H](O)CN2C(=O)C(c2cc(N3CC4(CC(c5cc6nnc(-c7ccccc7O)cc6n5C5CCC5)C4)C3)no2)C(C)C)c(OCCCOC)c1 (stereo partly shown) [Compound 52]", "result": "< 10 nM"}

Hey, quick one: what's DC50 for each of these?
1. CCn1c(C2CCN(c3ncc(-c4cc([C@H](C(=O)N5C[C@H](O)C[C@H]5C(=O)N[C@@H](C)c5ccc(-c6scnc6C)cc5)C(C)C)on4)cn3)CC2)cc2nnc(-c3ccccc3O)cc21 [Compound 23]
2. Cc1ncsc1-c1ccc([C@H](C)NC(=O)[C@@H]2C[C@@H](O)CN2C(=O)[C@@H](c2cc(OCCN3CCC(O)(c4cc5nnc(-c6ccccc6O)cc5n4C)CC3)no2)C(C)C)cc1 [Compound 30]
3. Cc1ncsc1-c1ccc([C@H](C)NC(=O)[C@@H]2C[C@@H](O)CN2C(=O)[C@@H](c2cc(-c3cnc(N4CC[C@H](c5cc6nnc(-c7ccccc7O)cc6n5C56CC(C5)C6)C4)nc3)no2)C(C)C)cc1 [Compound 95]
4. Cc1ncsc1-c1ccc([C@H](C)NC(=O)[C@@H]2C[C@@H](O)CN2C(=O)[C@H](c2cc(-c3cnc(N4CC[C@@H](c5cc6nnc(-c7ccccc7O)cc6n5C5CC5)C4)nc3)no2)C(C)C)cc1 [Compound 37]
5. Cc1ncsc1-c1ccc([C@H](C)NC(=O)[C@@H]2C[C@@H](O)CN2C(=O)[C@@H](c2cc(OCC(=O)N3CC(c4cc5nnc(-c6ccccc6O)cc5n4C)C3)no2)C(C)C)cc1 [Compound 15]
6. Cc1ncsc1-c1ccc([C@H](C)NC(=O)[C@@H]2C[C@@H](O)CN2C(=O)[C@@H](c2cc(N3CCC4(CC[C@@H](c5cc6nnc(-c7ccccc7O)cc6n5C5CC5)C4)CC3)no2)C(C)C)cc1 [Compound 97]
7. Cc1ncsc1-c1ccc([C@H](C)NC(=O)[C@@H]2C[C@@H](O)CN2C(=O)[C@@H](c2cc(N3CCC(C(=O)N4CC(c5cc6nnc(-c7ccccc7O)cc6[nH]5)C4)CC3)no2)C(C)C)cc1 [Compound 6]

### Response
< 10 nM
> 10 nM
< 10 nM
> 10 nM
> 100 nM
< 10 nM
> 10 nM

Hey, quick one: what's DC50 for each of these?
1. Cc1ncsc1-c1ccc([C@H](C)NC(=O)[C@@H]2C[C@@H](O)CN2C(=O)[C@@H](c2cc(N3CC4(CC(c5cc6nnc(-c7ccccc7O)cc6n5C56CC(C5)C6)C4)C3)no2)C(C)C)cc1 [Compound 65]
2. Cc1ncsc1-c1ccc([C@H](C)NC(=O)[C@@H]2C[C@@H](O)CN2C(=O)[C@@H](c2cc(-c3cnc(N4CC[C@@H](c5cc6nnc(-c7ccccc7O)cc6n5C56CC(C5)C6)C4)nc3)no2)C(C)C)cc1 [Compound 94]
3. Cc1ncsc1-c1ccc([C@H](C)NC(=O)[C@@H]2C[C@@H](O)CN2C(=O)[C@@H](c2cc(-c3cnc(N4CC[C@H](c5cc6nnc(-c7cc(F)cc(Cl)c7O)cc6n5C5CC5)C4)nc3)no2)C(C)C)cc1 [Compound 73]
4. Cc1ncsc1-c1ccc([C@H](C)NC(=O)[C@@H]2C[C@@H](O)CN2C(=O)[C@@H](c2cc(N3CCC(CN4CC(c5cc6nnc(-c7ccccc7O)cc6n5C)C4)CC3)no2)C(C)C)cc1 [Compound 9]
5. Cc1ncsc1-c1ccc([C@H](C)NC(=O)[C@@H]2C[C@@H](O)CN2C(=O)[C@@H](c2cc(-c3cnc(N4CC[C@H](c5cc6nnc(-c7ccccc7O)cc6n5CC5CC5)C4)nc3)no2)C(C)C)cc1 [Compound 115]
6. C#Cc1ccc(CNC(=O)[C@@H]2C[C@@H](O)CN2C(=O)C(c2cc(N3CC4(CC(c5cc6nnc(-c7ccccc7O)cc6n5C5CCC5)C4)C3)no2)C(C)C)cc1 (stereo partly shown) [Compound 57]

### Response
1. < 10 nM
2. < 10 nM
3. > 10 nM
4. > 10 nM
5. < 10 nM
6. < 10 nM
